Read-out: TIMP metallopeptidase inhibitor 2 (TIMP2), TIMP2 (gene 7077)
PROTOCOL: BSK_KF3CT_TIMP2: BioMAP Diversity Plus: KF3CT Assay for TIMP metallopeptidase inhibitor 2 (TIMP2) Biomarker Activity (AID 2283071)
EXPERIMENTAL_CONDITIONS: primary human keratinocytes with fibroblasts; actives raise or lower the signal
Active and inactive are the calls of the source. How the source made its calls: active means hit-call score of the fitted dose curve at least 0.9, where 1 is the maximum; inactive means score below 0.9.
Field 'call' accepts active, inactive

[
  {
    "COMPOUND": "Cc1ccc(OP(=O)(Oc2ccc(C)cc2)Oc2ccc(C)cc2)cc1 (tested in a mixture with another compound)",
    "LABEL": "active"
  },
  {
    "COMPOUND": "O=[N+]([O-])c1ccc(Cl)cc1",
    "LABEL": "inactive"
  },
  {
    "COMPOUND": "CCC(C)c1cc([N+](=O)[O-])cc([N+](=O)[O-])c1OC(=O)C=C(C)C (configuration not stated)",
    "LABEL": "active"
  },
  {
    "COMPOUND": "O=[N+]([O-])C=Cc1ccccc1",
    "LABEL": "active"
  },
  {
    "COMPOUND": "CCCOC(=O)c1ccccc1C(=O)OCCC",
    "LABEL": "inactive"
  },
  {
    "COMPOUND": "COc1ccc(CO)cc1",
    "LABEL": "inactive"
  }
]

Kindly review the next compound as well.
Hello, I am checking results. What call was entered for O=S(=O)(c1ccccc1)c1ccccc1 ?
inactive
